Biological target: Cyclin-dependent kinase 2/cyclin E1 (Homo sapiens, UniProt P24941)
Experiment: Inhibition of CDK2/cyclin E (unknown origin) using peptide substrate in presence of [gamma33P]ATP by image analyser
Type: protein-complex assay
Threshold check on IC50: strictly below 6 µM is true; on or above 6 µM is false.

A selection of reference data follows.
- O=c1n(CCCO)cc(C2CCCCC2)c2nccn12: true
- O=c1[nH]cc(-c2ccc(O)cc2Cl)c2nccn12: true
- CC(=O)OCCCn1cc(C2CCCCC2)c2nccn2c1=O: false
- O=c1[nH]cc(C2CCCCC2)c2nc(I)cn12: false
- COc1ccc(-c2cn3c(=O)[nH]cc(-c4ccc(OC)cc4)c3n2)cc1: false
- Cn1cc(C2CCCCC2)c2nccn2c1=O: true
- O=c1[nH]cc(-c2ccccc2)c2ncc(I)n12: false
- O=c1[nH]cc(-c2ccccc2)c2ncc(Br)n12: false

Asked: Just wondering, is IC50 of "O=C(O)Cn1cc(C2CCCCC2)c2nccn2c1=O" below 6 µM?
Given back: false

Asked: Just wondering, is IC50 of "O=c1[nH]cc(-c2ccc(-c3c[nH]c(=O)n4ccnc34)cc2)c2nccn12" below 6 µM?
Given back: false

Asked: Just wondering, is IC50 of "O=c1[nH]cc(-c2ccccc2)c2nc(Br)cn12" below 6 µM?
Given back: false

Asked: Just wondering, is IC50 of "O=c1[nH]cc(-c2ccsc2)c2nccn12" below 6 µM?
Given back: false

Asked: Just wondering, is IC50 of "O=c1n(CCO)cc(C2CCCCC2)c2nccn12" below 6 µM?
Given back: true

----------
Measured pIC50 accompanies every entry in the list below.
Target: Cyclin-dependent kinase 1/cyclin B1 (Homo sapiens)
Sequence (P06493 whole entry): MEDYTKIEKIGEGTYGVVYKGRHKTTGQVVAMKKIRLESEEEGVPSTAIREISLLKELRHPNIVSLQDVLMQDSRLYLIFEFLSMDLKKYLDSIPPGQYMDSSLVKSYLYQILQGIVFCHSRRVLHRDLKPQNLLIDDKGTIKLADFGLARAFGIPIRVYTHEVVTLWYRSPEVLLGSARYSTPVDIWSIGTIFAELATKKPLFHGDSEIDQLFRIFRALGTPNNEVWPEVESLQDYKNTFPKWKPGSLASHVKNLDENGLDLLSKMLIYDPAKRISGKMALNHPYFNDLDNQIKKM
Sequence (P14635 whole entry, further chain): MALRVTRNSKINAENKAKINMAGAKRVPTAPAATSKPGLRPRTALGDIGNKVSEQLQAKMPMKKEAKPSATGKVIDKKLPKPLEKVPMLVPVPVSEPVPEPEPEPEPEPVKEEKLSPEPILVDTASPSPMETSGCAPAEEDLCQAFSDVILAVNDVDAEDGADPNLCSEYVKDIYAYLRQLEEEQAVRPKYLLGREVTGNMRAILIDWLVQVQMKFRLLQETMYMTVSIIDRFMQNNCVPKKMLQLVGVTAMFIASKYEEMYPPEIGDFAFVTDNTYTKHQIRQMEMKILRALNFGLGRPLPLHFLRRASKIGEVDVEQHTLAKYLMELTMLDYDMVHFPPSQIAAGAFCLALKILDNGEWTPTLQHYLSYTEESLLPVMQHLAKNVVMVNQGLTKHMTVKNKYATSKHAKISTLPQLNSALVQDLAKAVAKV
Test: Inhibition of CDK1/cyclin B (unknown origin) using peptide substrate in presence of [gamma33P]ATP by image analyser
Notebook: values listed as pIC50 are -log10 of the concentration (mol/L).

• O=c1[nH]cc(C2CCCCC2)c2nccn12 = 5.37

Now let's try a different one.
pIC50 reported for this molecule "NS(=O)(=O)c1ccc(Nc2nc(-c3cccc(-c4ccccc4)c3)c3nc[nH]c3n2)cc1" : 5.37

----------
Biological target: Cyclin-dependent kinase 2/cyclin E1 (Homo sapiens)
Experiment: Inhibition of CDK2/cyclin E (unknown origin) using peptide substrate in presence of [gamma33P]ATP by image analyser
Assay type: protein-complex assay
pIC50: −log10 of the molar value.
MEASURED_QUANTITY: pIC50

Here are 3 molecules together with their reported answers.
• O=c1[nH]cc(-c2ccccc2)c2nc(I)c(I)n12 = < 4.90
• CCOC(=O)Cn1cc(C2CCCCC2)c2nccn2c1=O = < 4.30
• O=C1c2ccccc2C(=O)N1Cn1cc(C2CCCCC2)c2nccn2c1=O = < 4.30

pIC50 reported for this molecule "O=c1[nH]cc(-c2ccccc2)c2nc(I)cn12" : < 4.60

pIC50 reported for this molecule "O=c1[nH]cc(-c2ccccc2)c2nc(-c3ccccc3)cn12" : < 4.30
